- EXPERIMENTAL TARGET: T1, human mesotrypsin (catalytically active) (human, UniProt P35030 81-304)
- T1 construct: mature; In the invasion assays it is the endogenous enzyme of PC3-M cells; also called active mesotrypsin; PRSS3 gene product
- T1 sequence (looked up): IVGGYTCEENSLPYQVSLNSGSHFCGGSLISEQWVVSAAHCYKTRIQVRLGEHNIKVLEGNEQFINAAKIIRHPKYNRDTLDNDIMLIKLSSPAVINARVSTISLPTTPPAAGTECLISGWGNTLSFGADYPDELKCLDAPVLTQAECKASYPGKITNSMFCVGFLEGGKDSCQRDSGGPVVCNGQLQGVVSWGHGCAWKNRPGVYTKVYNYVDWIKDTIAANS
- TEST METHOD NOTES: inhibition of mesotrypsin activity

- BINDER: "APPIM17L,I18F,S19F,F34V (SEQ ID NO: 13), soluble (designed binder, also called APPI 3M G17L,S19F; not shown: His tag at the C-terminal) EVCSEQAETGPCRALFFRWYFDVTEGKCAPFVYGGCGGNRNNFDTEEYCMAVCGSAI"
  Ki [nM]: 5.38
